Provenance of the data: patent US9340577B2

I'd appreciate it if you could supply pIC50 values for the items below.
- target.under.test: DRB1*1302 (Homo sapiens, UniProt P01903+P01911, A100E/A169T/K41T/L162R/M171V/P40S/Q125H/Q178H/Q39Y/Q99D/R42S/S66N/T262R/V115G/W38E/Y61H)
- Sequence (P01903 26-254 limits assumed, other chains not shown): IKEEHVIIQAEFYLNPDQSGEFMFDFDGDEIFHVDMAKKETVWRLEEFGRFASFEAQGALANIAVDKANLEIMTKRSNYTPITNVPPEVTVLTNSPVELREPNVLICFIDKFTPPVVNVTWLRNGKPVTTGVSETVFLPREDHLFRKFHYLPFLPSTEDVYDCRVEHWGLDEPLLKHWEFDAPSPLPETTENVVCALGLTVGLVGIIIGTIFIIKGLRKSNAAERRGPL
- protocol.notes: biochemical
- Format: binding
pIC50: −log10 of the molar value. No end group written: not given here.

| item.sequence | pIC50 |
| --- | --- |
| RKTIAKALSSILNVP [Peptide 89.0123] | < 4.70 |
| DGVSHAQLPARRAEP [Peptide 1543.18] | < 4.70 |
| LYCYEQLSDSSDEDE [Peptide 1543.13] | < 4.70 |
| RREVYDFAFRDLCIV [Peptide 1543.25] | < 4.70 |

Please turn your attention to the following entry.
Asked: Look up and report measured pIC50 for this entry: QWAYDNDIVDDSEIA [Peptide 90.0036]
Given back: < 4.70

====

I'd appreciate it if you could supply IC50 values for the items below.
- target.under.test: A*0206 (Homo sapiens, UniProt P04439, D140Y/D185E/D98H/E176V/E277Q/F33Y/G131W/G231S/I119V/I121R/I166T/I218V/L300P/L318F/N151K/N90K/P208A/P217A/Q86G/Q94H/R138H/R169H/T345S)
- protocol.notes: biochemical
- Type: binding
No end group written: not given here.
Answers are plain numbers, in nM.

# annotated cases, reported IC50 shown
| item.sequence | IC50 / nM |
| --- | --- |
| IIYPNASLLV [Peptide 9013.0144] | 70 |
| RTLTLLSVV [Peptide 9013.0075] | 88 |

Asked: Look up and report measured IC50 for this entry: KLTQLCVTL [Peptide 1537.02]
Given back: 131

====

- target.under.test: A*0206 (Homo sapiens, UniProt P04439, D140Y/D185E/D98H/E176V/E277Q/F33Y/G131W/G231S/I119V/I121R/I166T/I218V/L300P/L318F/N151K/N90K/P208A/P217A/Q86G/Q94H/R138H/R169H/T345S)
- protocol.notes: biochemical
- Assay type: binding
No end group written: not given here.
Strictly below 70 nM in IC50: class 1. Otherwise: class 0.

Please review the following examples before continuing.
| item.sequence | category |
| --- | --- |
| SLPVSPRLQV [Peptide 9013.0222] | class 0 |
| GLQQATPGPA [Peptide 9013.0143] | class 0 |
| QLHTQVLFIA [Peptide 9013.0242] | class 0 |

Asked: Determine if RLQLSNGNRV [Peptide 9013.0224] shows IC50 strictly lower than 70 nM.
Given back: class 0

Asked: Determine if RLLQQLLFI [Peptide 1525.10] shows IC50 strictly lower than 70 nM.
Given back: class 1

Asked: Determine if KILQQLLFI [Peptide 1525.21] shows IC50 strictly lower than 70 nM.
Given back: class 1

Asked: Determine if RVLQQLLFV [Peptide 1545.05] shows IC50 strictly lower than 70 nM.
Given back: class 1

Asked: Determine if WLRLLLTASL [Peptide 9013.0116] shows IC50 strictly lower than 70 nM.
Given back: class 0

Asked: Determine if VQWAFDNEL [Peptide 86.0182] shows IC50 strictly lower than 70 nM.
Given back: class 0

Asked: Determine if VLFTCEPET [Peptide 9013.0045] shows IC50 strictly lower than 70 nM.
Given back: class 0

Asked: Determine if ALYSWLIDGNI [Peptide 9013.0315] shows IC50 strictly lower than 70 nM.
Given back: class 0

Asked: Determine if RILQQLLFV [Peptide 1525.09] shows IC50 strictly lower than 70 nM.
Given back: class 1

Asked: Determine if NLAEGKEVLL [Peptide 9013.0134] shows IC50 strictly lower than 70 nM.
Given back: class 0

Asked: Determine if WLNYTPGPGI [Peptide 73.0129] shows IC50 strictly lower than 70 nM.
Given back: class 0

====

- target.under.test: DRB4*0101 (Homo sapiens, UniProt P01903+P13762, G164S)
- protocol.notes: biochemical
- Assay type: binding
pIC50: −log10 of the molar value. No end group written: not given here.
Assign class by pIC50: not lower than 6 means Y; lower than 6 means N.

| item.sequence | target.under.test | category |
| --- | --- | --- |
| QWAYDNDIVDDSEIA [Peptide 90.0036] | DRB4*0101 (Homo sapiens, UniProt P01903+P13762, G164S) | N |
| YFKLFLQGTPKHNCL [Peptide 89.0133] | DRB4*0101 (Homo sapiens, UniProt P01903+P13762, G164S) | Y |
| EVHMENESIYCPDSV [Peptide 90.0238] | DRB4*0101 (Homo sapiens, UniProt P01903+P13762, G164S) | N |
| ETCMLIEPPKLRSSV [Peptide 89.0084] | DRB4*0101 (Homo sapiens, UniProt P01903+P13762, G164S) | Y |
| AYGISFMELVRPFKS [Peptide 89.0060] | DRB4*0101 (Homo sapiens, UniProt P01903+P13762, G164S) | Y |
| VTAIFGVNPTIAEGF [Peptide 89.0023] | DRB4*0101 (Homo sapiens, UniProt P01903+P13762, G164S) | Y |
| WKLIRMECALLYTAK [Peptide 90.0199] | DRB4*0101 (Homo sapiens, UniProt P01903+P13762, G164S) | Y |
| LSQRLNVCQDKILEH [Peptide 1601.21] | DRB4*0101 (Homo sapiens, UniProt P01903+P13762, G164S) | N |

Please look at the following sequence next.
Asked: Decide: is the reported value of pIC50 for LKSFLKGTPKKNCLV [Peptide 89.0035] equal to or greater than 6?
Given back: N

====

I'd appreciate it if you could supply pIC50 values for the items below.
- target.under.test: HLA-A3.2 (A*0301) (Homo sapiens)
- protocol.notes: biochemical
- Type: binding
No end group written: not given here.
Give bare numbers, as −log10 of the molar value.

| item.sequence | pIC50 |
| --- | --- |
| LLFYSKVRK [Peptide 78.0298] | 8.41 |

Report pIC50 for every entry below.
1. KTASVGTPK [Peptide 1589.27]
2. FTAFLGAFK [Peptide 88.0362]

Given back:
7.96
7.51

====

- target.under.test: HLA-A*0201 (HLA-A2.1) (Homo sapiens, UniProt P04439, D140Y/D185E/D98H/E176V/E277Q/G131W/G231S/I119V/I121R/I166T/I218V/L300P/L318F/N151K/N90K/P208A/P217A/Q86G/Q94H/R138H/R169H/T345S)
- protocol.notes: biochemical
- Type: binding
No end group written: not given here.
I'd appreciate it if you could supply pIC50 values for the items below.
Numbers only, as −log10 of the molar value.

# annotated cases, reported pIC50 shown
| item.sequence | pIC50 |
| --- | --- |
| TTQDVSLEV [Peptide 1593.54] | 5.87 |
| TLELFIPNI [Peptide 9013.0060] | 7.54 |
| VLEGKEVLLLV [Peptide 9013.0273] | 5.73 |
| ALDGNDISV [Peptide 1578.33] | 7.40 |
| LLLSNGNRTL [Peptide 9013.0227] | 5.81 |

Report pIC50 for every entry below.
1. FQYAQLADV [Peptide 1578.36]
2. IQNDTGFYTV [Peptide 9013.0149]
3. VQWAFDNEL [Peptide 86.0182]
4. TLELFIPNITV [Peptide 9013.0299]
5. VLYGPDAPV [Peptide 9013.0052]

Given back:
1: 7.38; 2: 6.22; 3: 5.49; 4: 6.79; 5: 7.32

====

- target.under.test: HLA-A*0201 (HLA-A2.1) (Homo sapiens, UniProt P04439, D140Y/D185E/D98H/E176V/E277Q/G131W/G231S/I119V/I121R/I166T/I218V/L300P/L318F/N151K/N90K/P208A/P217A/Q86G/Q94H/R138H/R169H/T345S)
- protocol.notes: biochemical
- Type: binding
value.type: A*0201
One number for each entry.

# annotated cases, reported A*0201 shown
| item.sequence | meas.value |
| --- | --- |
| BQLAKTBPV [Peptide 1329.14] | 0.0490 |
| ALNKMFBQV [Peptide 1323.04] | 0.0260 |
| BLTIHYNYV [Peptide 1323.08] | 0.0430 |
| AMBRWGLLV [Peptide 1334.08] | 0.1400 |
| YLIMVKBWMV [Peptide 1334.05] | 0.6900 |
| CQLAKTCPV [Peptide 1324.07] | 0.0240 |

Report A*0201 for every entry below.
1. BLLAKTBPV [Peptide 1329.15]
2. YLCNSSCMGGV [Peptide 1323.31]
3. SJPPPGTRV [Peptide 1345.03]

Given back:
1. 0.1100
2. 0.2300
3. 0.0545
